# pIC50 per entry
- TEST SYSTEM: PfThrRS (Plasmodium falciparum, UniProt Q8IIA4)
- Construct: made in house; host or cells: E. coli BL21(DE3)
- Sequence (Q8IIA4 21-1013): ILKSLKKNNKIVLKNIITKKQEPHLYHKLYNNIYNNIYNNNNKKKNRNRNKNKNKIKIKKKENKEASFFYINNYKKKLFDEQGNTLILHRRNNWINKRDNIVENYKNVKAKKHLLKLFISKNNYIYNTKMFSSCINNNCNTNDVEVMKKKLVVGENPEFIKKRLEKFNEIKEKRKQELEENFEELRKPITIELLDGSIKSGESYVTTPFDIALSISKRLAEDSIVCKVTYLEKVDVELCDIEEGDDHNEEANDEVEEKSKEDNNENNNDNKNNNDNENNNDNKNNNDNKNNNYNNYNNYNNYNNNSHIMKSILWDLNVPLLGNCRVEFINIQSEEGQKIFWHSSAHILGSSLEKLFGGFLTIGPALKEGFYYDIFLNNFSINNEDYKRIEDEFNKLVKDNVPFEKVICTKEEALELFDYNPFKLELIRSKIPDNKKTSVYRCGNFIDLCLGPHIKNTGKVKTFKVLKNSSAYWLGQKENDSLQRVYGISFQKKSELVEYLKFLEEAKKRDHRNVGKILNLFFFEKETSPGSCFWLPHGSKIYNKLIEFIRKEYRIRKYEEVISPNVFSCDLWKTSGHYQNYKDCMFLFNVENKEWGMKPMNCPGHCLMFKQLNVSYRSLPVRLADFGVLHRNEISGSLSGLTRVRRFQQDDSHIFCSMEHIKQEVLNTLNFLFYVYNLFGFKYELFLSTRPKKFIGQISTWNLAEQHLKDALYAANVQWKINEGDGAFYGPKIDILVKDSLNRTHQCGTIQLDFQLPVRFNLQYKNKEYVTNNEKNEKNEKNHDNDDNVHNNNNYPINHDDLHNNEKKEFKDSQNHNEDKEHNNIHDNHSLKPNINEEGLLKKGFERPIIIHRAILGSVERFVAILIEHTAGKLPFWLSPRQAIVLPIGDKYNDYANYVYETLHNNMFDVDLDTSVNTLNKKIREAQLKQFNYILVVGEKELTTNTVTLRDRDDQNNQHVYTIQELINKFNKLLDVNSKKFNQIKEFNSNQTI
- ASSAY NOTES: In vitro PfThrRS inhibition assay (aminoacylation activity, ATP consumption by Kinase-Glo luminescence)
- Assay type: biochemical
- CONDITION NOTES: verified HTVS hits, Fig 4
pIC50: −log10 of the molar value.

COMPOUND | TEST SYSTEM | pIC50
Cc1nc2cc(NC(=O)C3C4C=CC(C4)C3C(=O)O)ccc2o1 (centres unmarked) [compound 11] | PfThrRS (Plasmodium falciparum, UniProt Q8IIA4) | 4.41
O=C(O)c1cc(C2CCN(C(=O)C[C@H]3CCCCO3)CC2)no1 [compound 13] | PfThrRS (Plasmodium falciparum, UniProt Q8IIA4) | 4.19
O=C(O)CCc1nc2c(O)nc(SCc3ccccc3F)[nH]c-2nc1=O [compound 12] | PfThrRS (Plasmodium falciparum, UniProt Q8IIA4) | 4.92
Cc1csc2ncc(C(=O)N[C@H]3Cc4ccc(C(=O)O)cc4C3)n12 [compound 14] | PfThrRS (Plasmodium falciparum, UniProt Q8IIA4) | 4.31
O=C(O)CCS(=O)(=O)c1ccc2c(c1)OCCCO2 [compound 9] | PfThrRS (Plasmodium falciparum, UniProt Q8IIA4) | 4.12
CCCCC[C@H](O)CC[C@@H]1[C@H]2Cc3cccc(OCC(=O)O)c3C[C@H]2C[C@H]1O [compound 15, Remodulin, reference compound] | PfThrRS (Plasmodium falciparum, UniProt Q8IIA4) | 4.90
O=C(c1ccn(-c2ccc(F)cc2)n1)N1CCC(O)(C(=O)O)C1 (centres unmarked) [compound 10] | PfThrRS (Plasmodium falciparum, UniProt Q8IIA4) | 4.72
Cc1c(C(=O)O)nnn1-c1sc2c(c1C(=O)O)CCCC2 [compound 8] | PfThrRS (Plasmodium falciparum, UniProt Q8IIA4) | 4.99
